Tested on: PAD
METHOD: qHTS profiling for inhibitors of Plasmodium falciparum proliferation (AID 504749); further: nearly all actives have a fitted effect of over 60% in size
CONDITION DESCRIPTION: P. falciparum in erythrocytes, SYBR Green DNA, 72 h; series mostly up to 28.7 µM
Records with an inconclusive call do not appear. Active and inactive are the calls of the source. The call rests on the fitted dose curve; in most records, active means well fitted inhibition curve with a large enough effect; inconclusive means small, poorly fitted or top-dose-only effect; inactive means flat fitted curve, though single readings scatter.
Labels: Yes for active, No for inactive

| TEST SMILES | CLASS LABEL |
| --- | --- |
| Cc1ncc(CO)c(C=O)c1O | No |
| CC1=C(C(=O)O)N2C(=O)[C@@H](NC(=O)[C@H](N)c3ccccc3)[C@H]2SC1 | No |
| CN1CCc2cccc3c2[C@H]1Cc1ccc(O)c(O)c1-3 | Yes |
| CCOc1ccccc1OCCN[C@H](C)Cc1ccc(OC)c(S(N)(=O)=O)c1 | No |
| CCOc1ccccc1C(N)=O | No |
| CCN(CC)CCNC(=O)c1cc(Br)c(N)cc1OC | No |
| CCN(CC)CCOC(=O)C1(c2ccccc2)CCCC1 | No |

----------
METHOD: qHTS assay for measurement of the activity of small molecule inhibitors on Zika virus induced Caspase-3 activity in human iPSC derived neural progenitor cells (hNPCs) (AID 1224857); further: nearly all actives have a fitted effect of over 65% in size; further: potency means the concentration at half of the fitted maximal effect
CONDITION DESCRIPTION: hNPCs ZIKV-induced caspase-3/7, Caspase-Glo luminescence, 6 h; series mostly up to 45.7 µM
Inconclusive results are not listed. The source made the active and inactive calls. Calls follow the shape of the dose curve; as a rule, active = well fitted inhibition curve with a large enough effect; inconclusive = small, poorly fitted or top-dose-only effect; inactive = no such curve, though single readings can be large or run the other way.
METRIC: Potency

| COMPOUND | EXPERIMENTAL RESULT |
| --- | --- |
| Cc1ccc(O)c([C@H](CCN(C(C)C)C(C)C)c2ccccc2)c1 | inactive |
| CC[N+](C)(CC)CCOC(=O)C(O)(c1ccccc1)C1CCCCC1 (centres undefined) | inactive |
| CCO[C@@H]1O[C@H](C(COCc2ccccc2)OCc2ccccc2)[C@H](OCc2ccccc2)[C@H]1O (some centres undefined) | inactive |
| O=[N+]([O-])c1ccc(/C=N\O)o1 | inactive |
| Cc1ccc(S(=O)(=O)NC(=O)NC2CCCC2)cc1 | inactive |
| CC[C@]12CCCN3CCc4c(n(c5ccccc45)C(=O)C1)[C@@H]32 | inactive |
| COP(=O)(OC)OC(c1ccc(Cl)cc1)P(=O)(OC)OC (centres undefined) | inactive |
| CC(C)CCCC(C)N (centres undefined) | inactive |
| CCCCNC(=O)NS(=O)(=O)c1ccc(N)cc1 | inactive |
| CCCCCCCCCCCCOCCOCCOCCOCCOCCOCCOCCOCCOCCO | inactive |
| N/C(=N\N=C\c1ccc(Cl)cc1)N/N=C/c1ccc(Cl)cc1 | inactive |
| COc1ccc(C(Cl)=C(c2ccc(OC)cc2)c2ccc(OC)cc2)cc1 | inactive |
| CCN(CC)CCOC(=O)C1(c2ccccc2)CCCC1 | inactive |
| OC(C#CCN1CCCC1)(c1ccccc1)c1ccccc1 | inactive |
| CC(=O)NO | inactive |
| CCOC(=O)C(C#N)=C(c1ccccc1)c1ccccc1 | inactive |
| CC(C)n1c(/C=C/[C@@H](O)C[C@@H](O)CC(=O)O)c(-c2ccc(F)cc2)c2ccccc21 | inactive |
| CC(=C(CCOC(=O)C(C)C)SSC(CCOC(=O)C(C)C)=C(C)N(C=O)Cc1cnc(C)nc1N)N(C=O)Cc1cnc(C)nc1N | 11.2 µM (active) |
| CCc1cc(Cl)c(OC)c(C(=O)NC[C@@H]2CCCN2CC)c1O | inactive |
| CN(C)CCOC(=O)C(c1ccccc1)C1(O)CCCC1 (centres undefined) | inactive |
| COc1ccc(-c2cc(C(F)F)nn2-c2ccc(S(N)(=O)=O)cc2)cc1F | inactive |
| CC(=O)Nc1ccc(OCC(O)CNC(C)C)cc1 (centres undefined) | inactive |
| CCN(CC)CCNC(=O)c1cc(Br)c(N)cc1OC | inactive |
| Cc1cccc(C)c1NC(=O)c1ccccc1C(=O)O | inactive |
